Test system: ragweed (common ragweed, Ambrosia elatior)
assay method text: Test A postemergence
Type: in vivo
run parameters: 500 g ai/ha, postemergence; 0 to 100 scale, 0 no effect, 100 complete control
observable: Plant response rating, Ragweed
// response body must contain only the number

- compound: "Cc1ccc(C2CNC(=O)C2C(=O)Nc2cccc(F)c2F)cc1F (racemic)"
  Plant response rating, Ragweed: 30
- compound: "O=C1NCC(c2ccc(Br)cc2)C1C(=O)Nc1cccc(F)c1 (stereo not shown)"
  Plant response rating, Ragweed: 0
- compound: "CCCOc1cccc(C2CNC(=O)C2C(=O)Nc2cccc(F)c2F)c1 (racemic)"
  Plant response rating, Ragweed: 0
- compound: "COc1cccc(C2CNC(=O)C2C(=O)Nc2cccc(F)c2F)c1 (racemic)"
  Plant response rating, Ragweed: 20
- compound: "Cc1ccc(C2CN(C)C(=O)C2C(=O)Nc2cccc(F)c2F)cc1F (stereo not shown)"
  Plant response rating, Ragweed: 30
- compound: "COc1c(F)ccc(NC(=O)C2C(=O)NCC2c2cccc(C(F)(F)F)c2)c1F (racemic)"
  Plant response rating, Ragweed: 30

Next, consider the following compound.
Data request, read-out Plant response rating, Ragweed, for Cc1cccc(C2CNC(=O)C2C(=O)Nc2cccc(F)c2F)c1 (racemic)
0
